STUDY_SYSTEM: recombinant human muscarinic receptor m2 (Homo sapiens)
Sequence (P08172 whole entry): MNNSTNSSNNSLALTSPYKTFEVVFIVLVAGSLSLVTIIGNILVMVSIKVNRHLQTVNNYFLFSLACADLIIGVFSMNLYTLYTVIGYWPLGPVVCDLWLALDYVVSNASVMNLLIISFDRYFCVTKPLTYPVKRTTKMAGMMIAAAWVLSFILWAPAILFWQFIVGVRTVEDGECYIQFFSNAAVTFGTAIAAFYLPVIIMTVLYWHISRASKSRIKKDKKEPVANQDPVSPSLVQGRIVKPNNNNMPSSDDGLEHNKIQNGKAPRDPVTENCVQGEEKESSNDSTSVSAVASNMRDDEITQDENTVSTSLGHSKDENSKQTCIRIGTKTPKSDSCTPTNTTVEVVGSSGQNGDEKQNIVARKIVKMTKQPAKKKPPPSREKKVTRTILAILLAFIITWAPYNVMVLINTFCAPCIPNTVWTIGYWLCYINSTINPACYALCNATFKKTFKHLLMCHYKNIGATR
PROTOCOL_DETAILS: Radioligand binding studies, [3H]N-methyl scopolamine, scintillation proximity assay
RUN_CONDITIONS: CHO cell membranes, pIC50 converted to pKi by Cheng-Prusoff
MEASUREMENT_NAME: Ki
Phrase the answer as number then unit, nothing more needed.

Check out these entries, answers already filled in.
molecule="CCCN(CC1CCN(C(=O)N2CCOCC2)CC1)C1CCc2ccc(N)cc2C1 (stereo not shown) [Cpd 95]" recorded_measurement="5.25 nM"
molecule="CCCN(CC1CCN(C(=O)NC)CC1)C1CCc2ccc(OC)cc2C1 (stereo not shown) [Cpd 25]" recorded_measurement="25.1 nM"
molecule="CCCN(CC1CCN(C(=O)c2ccno2)CC1)C1CCc2ccc(OS(=O)(=O)C(F)(F)F)cc2C1 (stereo not shown) [Cpd 107]" recorded_measurement="16.2 nM"

Challenge: So what's the measured Ki for this one? CCCN(CC1CCN(C(=O)N2CCN(C)CC2)CC1)C1CCc2ccc(OS(=O)(=O)c3c(C)noc3C)cc2C1 (stereo not shown) [Cpd 115]
Response given: 21.9 nM

# credit: patent US6864266B2
